// provenance: the supplement of paper PMC7840683

System: HepaRG
Assay: LDH release cytotoxicity, % of total lysis control; higher = more cytotoxic
Conditions: 0.03162 µM; 48 h
measurementName: LDH release cytotoxicity (%)
Give a bare numeral; the unit % is implied.

# count of solved cases: 2
| compound | unitTag | LDH release cytotoxicity |
| --- | --- | --- |
| CCCCCCCCCCCCc1ccccc1 [Dodecylbenzene] | % | -2.1 |
| CCCCc1ccc2c(n1)C(c1ccc(OC)cc1CC(C)C(=O)O)C(C(=O)O)C2c1ccc2c(c1)OCO2 (stereo not drawn) [MK-547] | % | -0.553 |

Exam item: Identify the measured LDH release cytotoxicity of CC(C)N(C(=O)SCC(Cl)=C(Cl)Cl)C(C)C [Tri-allate] for HepaRG.
Marked response: -0.887

----------
LDH release cytotoxicity values, listed per item
Test system: HepaRG
Test: LDH release cytotoxicity, % of total lysis control; higher = more cytotoxic
Conditions: 10 µM; 48 h
Provide only the numeric value, understood in %.

| compound | measurementName | resultValue |
| --- | --- | --- |
| CCCCCCC(=O)O [Heptanoic acid] | LDH release cytotoxicity | -1.54 |
| O=C(O)c1nc(Cl)ccc1Cl [Clopyralid] | LDH release cytotoxicity | 0.0712 |
| OCCOCCO [Diethylene glycol] | LDH release cytotoxicity | -0.563 |
| O=C(O)CCCOc1ccc(Cl)cc1Cl [2,4-Dichlorophenoxybutyric acid] | LDH release cytotoxicity | -0.351 |
| CC12CC1(C)C(=O)N(c1cc(Cl)cc(Cl)c1)C2=O (stereo unspecified) [Procymidone] | LDH release cytotoxicity | -1.32 |

Exam item: // returns reported LDH release cytotoxicity for input Fc1ccccc1C(F)COC1CCC(Nc2[nH]cnc3nncc2-3)CC1 (stereo unspecified) [MK-968]
Marked response: -2.42

Exam item: What LDH release cytotoxicity value was documented for this compound, CCNc1nc(Cl)nc(NC(C)(C)C)n1 [Terbutylazine] ?
Marked response: -0.989

Exam item: What LDH release cytotoxicity value was documented for this compound, CC12CCC3c4ccc(O)cc4CC(CCCCCCCCCS(=O)CCCC(F)(F)C(F)(F)F)C3C1CCC2O (stereo unspecified) [Fulvestrant] ?
Marked response: -0.0401

Exam item: Form field: reported LDH release cytotoxicity of c1ccc2c(c1)Nc1ccccc1S2 [Phenothiazine]
Marked response: -1.1

----------
System: HepaRG
Assay: LDH release cytotoxicity, % of total lysis control; higher = more cytotoxic
Conditions: 0.3162278 µM; 48 h
Where a name gives a salt, the structure may show the parent alone.
measurementName: LDH release cytotoxicity (%)
Please respond with the number in % and leave the unit unwritten.

Record excerpt, results attached:
| compound | experimentalSystem | LDH release cytotoxicity [%] |
| --- | --- | --- |
| CC(C)(c1ccc(O)cc1)c1ccc(O)cc1 | HepaRG | -1.1 |
| CON=C(C(=O)OC)c1ccccc1CON=C(C)c1cccc(C(F)(F)F)c1 | HepaRG | -0.545 |
| Clc1ccc(C(c2ccc(Cl)cc2)C(Cl)Cl)cc1 | HepaRG | -2.03 |

Exam item: Lab note: need LDH release cytotoxicity with HepaRG for entry C=C(C)C1Cc2c(ccc3c2OC2COc4cc(OC)c(OC)cc4C2C3=O)O1 (centres undefined) , please look it up.
Marked response: -4.58

Exam item: Given the entry COCC(C)O (centres undefined) , what LDH release cytotoxicity was observed with HepaRG?
Marked response: -1.53

Exam item: Param readout = LDH release cytotoxicity; param system = HepaRG; param query = CCOP(=S)(OCC)OC(Cl)C(Cl)(Cl)Cl (centres undefined) ; response: value
Marked response: -0.757

Exam item: // lookup LDH release cytotoxicity | system=HepaRG | key= CCOC(=O)C(O)(c1ccc(Cl)cc1)c1ccc(Cl)cc1 [Chlorobenzilate]
Marked response: -1.55

Exam item: Lab request: please report LDH release cytotoxicity under test system HepaRG for CN(C)C(=S)[S-].CN(C)C(=S)[S-].[Zn+2]
Marked response: -1.92

Exam item: Under HepaRG: LDH release cytotoxicity value of CC(C)(C)c1cc(C=C2SC(=N)NC2=O)cc(C(C)(C)C)c1O [Darbufelone mesylate] ?
Marked response: -3.09
